system: Staphylococcus epidermidis; assay: Antimicrobial activity against Staphylococcus epidermidis 6ep by broth dilution method; format: functional
Property: MIC (µg/mL)
The reply should be a number in µg/mL, with the unit left off.

Use the examples below as a reference point.
COc1cc2ccnc3c2c(c1OC)-c1ccccc1C3=O 50
COc1c(OC)c2c3c(nccc3c1OC)C(=O)c1ccccc1-2 25
O=C(N[C@H](CO)[C@H](O)c1ccc([N+](=O)[O-])cc1)C(Cl)Cl 50

// query MIC value for entry `O=C1c2ccccc2-c2c3c(cc4ccnc1c24)OCO3`
50

###

Below, each of the compounds is paired with its reported MIC value.
test system: Candida dubliniensis; test: Antimicrobial activity against Candida dubliniensis ATCC 778157 by broth dilution method; type: functional
Report as a plain number; the unit µg/mL is understood.

Below: 3 compounds and their reported MIC.
Compound	Numeric value
COc1c(OC)c2c3c(nccc3c1OC)C(=O)c1ccccc1-2 [HOMOMOSCHATOLINE]	25
CC(=O)N1CCN(c2ccc(OCC3COC(Cn4ccnc4)(c4ccc(Cl)cc4Cl)O3)cc2)CC1 (centres undefined) [KETOCONAZOLE]	12.5
O=C1c2ccccc2-c2c3c(cc4ccnc1c24)OCO3 [LIRIODENINE]	100

Next, consider the following compound.
What measured MIC goes with COc1cc2ccnc3c2c(c1OC)-c1ccccc1C3=O [LYSICAMINE] ?
100

###

system: Staphylococcus aureus; test: Antimicrobial activity against Staphylococcus aureus 8- penicillinase negative by broth dilution method; type: functional
The source made the active and inactive calls. No cut-off for these calls is given here.
Property: MIC

COc1cc2ccnc3c2c(c1OC)-c1ccccc1C3=O inactive
O=C1c2ccccc2-c2c3c(cc4ccnc1c24)OCO3 inactive
O=C(N[C@H](CO)[C@H](O)c1ccc([N+](=O)[O-])cc1)C(Cl)Cl 25 µg/mL
COc1c(OC)c2c3c(nccc3c1OC)C(=O)c1ccccc1-2 inactive

###

tested on: Candida albicans; assay: Antimicrobial activity against Candida albicans ATCC 10231 by broth dilution method; type: functional
Active and inactive are the calls of the source. The calls are words filed in the database; no cut-off is given here.

Compound	Assayed system	MIC
COc1c(OC)c2c3c(nccc3c1OC)C(=O)c1ccccc1-2	Candida albicans	inactive
CC(=O)N1CCN(c2ccc(OCC3COC(Cn4ccnc4)(c4ccc(Cl)cc4Cl)O3)cc2)CC1 (centres undefined)	Candida albicans	12.5 µg/mL
O=C1c2ccccc2-c2c3c(cc4ccnc1c24)OCO3	Candida albicans	inactive
COc1cc2ccnc3c2c(c1OC)-c1ccccc1C3=O	Candida albicans	inactive
